# Tested on: HCV 1a replicon
# protocol_description: Cell-based HCV replicon assay (TaqMan), genotype 1a replicon
# measurement_conditions: HCV genotype 1a replicon cells, replicon RNA by real time PCR, day 3; EC90 = concentration for ΔCT=3.2 over baseline

>  <compound>
COC(=O)N[C@H](C(=O)N1C[Si](C)(C)C[C@H]1c1nc2ccc3cc(-c4ccc(-c5cnc([C@@H]6C[C@H]7C[C@H]7N6C(=O)[C@@H](NC(=O)OC)C(C)C)[nH]5)cc4)ccc3c2[nH]1)C(C)C [Compound 105]

>  <EC90>
0.26 nM

$$$$
>  <compound>
CC[C@H](C)[C@H](NC(=O)OC)C(=O)N1C[Si](C)(C)C[C@H]1c1ncc(-c2ccc(-c3ccc4c(ccc5nc([C@@H]6CCCN6C(=O)[C@@H](NC(=O)OC)[C@@H](C)CC)[nH]c54)c3)cc2)[nH]1 [Compound 41]

>  <EC90>
0.19 nM

$$$$
>  <compound>
COC(=O)N[C@H](C(=O)N1C[Si](C)(C)C[C@H]1c1nc2ccc3cc(-c4ccc(-c5cnc([C@@H]6C[C@H]7C[C@H]7N6C(=O)[C@@H](NC(=O)OC)C(C)C)[nH]5)cc4)ccc3c2[nH]1)C(C)C [Compound 12]

>  <EC90>
0.006 nM

$$$$
>  <compound>
CC(C)(C)OC(=O)N1C[Si](C)(C)C[C@H]1c1nc2ccc3cc(-c4ccc(-c5cnc([C@@H]6C[C@H]7C[C@H]7N6C(=O)OC(C)(C)C)[nH]5)cc4)ccc3c2[nH]1 [Compound 104]

>  <EC90>
> 1000 nM

$$$$
>  <compound>
CC[C@H](C)[C@H](NC(=O)OC)C(=O)N1C[Si](C)(C)C[C@H]1c1ncc(-c2ccc(-c3ccc4c(ccc5nc([C@@H]6CCCN6C(=O)[C@@H](NC(=O)OC)[C@@H](C)CC)[nH]c54)c3)cc2)[nH]1 [Compound 47]

>  <EC90>
0.59 nM

$$$$
>  <compound>
CC(C)(C)OC(=O)N1C[Si](C)(C)C[C@H]1c1nc2ccc3cc(-c4ccc(-c5cnc([C@@H]6C[C@H]7C[C@H]7N6C(=O)OC(C)(C)C)[nH]5)cc4)ccc3c2[nH]1 [Compound 97]

>  <EC90>
> 1 nM

$$$$

====

# System: HCV 1a replicon
# protocol_description: Cell-based HCV replicon assay (TaqMan), genotype 1a replicon
# measurement_conditions: Hepatitis C virus, 72 h, HCV genotype 1a replicon cells, replicon RNA by real time PCR, day 3; EC90 = concentration for ΔCT=3.2 over baseline
Binning of EC90 into classes: low: < 0.2 nM; mid: ≥ 0.2 nM and < 0.5 nM; high: ≥ 0.5 nM

>  <compound>
COC(=O)NC(Cc1cccs1)C(=O)N1C[Si](C)(C)C[C@H]1c1nc2ccc3cc(-c4ccc(-c5cnc([C@@H]6CCCN6C(=O)[C@@H](NC(=O)OC)C(C)C)[nH]5)cc4)ccc3c2[nH]1 (stereo partly drawn)

>  <label>
high

$$$$
>  <compound>
COC(=O)N[C@H](C(=O)N1C[Si](C)(C)C[C@H]1c1nc2ccc3cc(-c4ccc(-c5cnc([C@@H]6[C@H]7CC[C@H](C7)N6C(=O)[C@@H](NC(=O)OC)C(C)C)[nH]5)cc4)ccc3c2[nH]1)C(C)C

>  <label>
low

$$$$
>  <compound>
COC(=O)N[C@H](C(=O)N1CCC[C@H]1c1ncc(-c2ccc(-c3ccc4c(ccc5nc([C@@H]6C[Si](C)(C)CN6C(=O)[C@@H](NC(=O)OC)C6CC6)[nH]c54)c3)cc2)[nH]1)C(C)C

>  <label>
mid

$$$$
>  <compound>
CC[C@H](C)[C@H](NC(=O)OC)C(=O)N1CCC[C@H]1c1ncc(-c2ccc(-c3ccc4c(ccc5nc([C@@H]6C[Si](C)(C)CN6C(=O)[C@@H](NC(=O)OC)[C@@H](C)CC)[nH]c54)c3)cc2)[nH]1

>  <label>
mid

$$$$
>  <compound>
COC(=O)N[C@H](C(=O)N1C[Si](C)(C)C[C@H]1c1nc2ccc3cc(-c4ccc(-c5cnc([C@@H]6CCCN6C(=O)[C@@H](NC(=O)OC)[C@@H](C)O)[nH]5)cc4)ccc3c2[nH]1)C(C)C

>  <label>
high

$$$$
>  <compound>
COC(=O)N[C@H](C(=O)N1CCC[C@H]1c1ncc(-c2ccc(-c3ccc4c(ccc5nc([C@@H]6C[Si](C)(C)CN6C(=O)[C@@H](NC(=O)OC)C6CCOCC6)[nH]c54)c3)cc2)[nH]1)C1CCOCC1

>  <label>
low

$$$$
>  <compound>
COC(=O)N[C@@H](CCSC)C(=O)N1C[Si](C)(C)C[C@H]1c1ncc(-c2ccc(-c3ccc4c(ccc5nc([C@@H]6CCCN6C(=O)[C@H](CCSC)NC(=O)OC)[nH]c54)c3)cc2)[nH]1

>  <label>
high

$$$$
>  <compound>
COC(=O)N[C@@H](C(=O)N1C[Si](C)(C)C[C@H]1c1ncc(-c2ccc(-c3ccc4c(ccc5nc([C@@H]6CCCN6C(=O)[C@H](NC(=O)OC)c6ccccc6)[nH]c54)c3)cc2)[nH]1)c1ccccc1

>  <label>
high

$$$$
>  <compound>
COC(=O)N[C@H](C(=O)N1CCC[C@H]1c1nc(Cl)c(-c2ccc(-c3ccc4c(ccc5nc([C@@H]6C[Si](C)(C)CN6C(=O)[C@@H](NC(=O)OC)C(C)C)[nH]c54)c3)cc2)[nH]1)C(C)C

>  <label>
low

$$$$
>  <compound>
COC(=O)N[C@H](C(=O)N1CCC[C@H]1c1ncc(-c2ccc(-c3ccc4c(ccc5nc([C@@H]6C[Si](C)(C)CN6C(=O)[C@@H](NC(=O)OC)C6CCCC6)[nH]c54)c3)cc2)[nH]1)C(C)C

>  <label>
mid

$$$$
>  <compound>
COC(=O)N[C@H](C(=O)N1CC(F)(F)C[C@H]1c1nc2ccc3cc(-c4ccc5c(ccc6nc([C@@H]7C[Si](C)(C)CN7C(=O)[C@@H](NC(=O)OC)C(C)C)[nH]c65)c4)ccc3c2[nH]1)C(C)C

>  <label>
low

$$$$
>  <compound>
COC(=O)N[C@H](C(=O)N1C[Si](C)(C)C[C@H]1c1nc2ccc3cc(-c4ccc(-c5cnc([C@@H]6CCCN6C(=O)[C@@H](NC(=O)OC)C6CC6)[nH]5)cc4)ccc3c2[nH]1)C(C)C

>  <label>
mid

$$$$
>  <compound>
COC(=O)N[C@H](C(=O)N1CCC[C@H]1c1ncc(-c2ccc(-c3ccc4c(ccc5nc([C@@H]6C[Si](C)(C)CN6C(=O)[C@@H](NC(=O)OC)C(C)OC)[nH]c54)c3)cc2)[nH]1)C(C)OC (stereo partly drawn)

>  <label>
low

$$$$
>  <compound>
CC(C)(C)OC(=O)N1CCC[C@H]1c1ncc(-c2ccc3cc(-c4ccc5c(ccc6nc([C@@H]7C[Si](C)(C)CN7C(=O)OC(C)(C)C)[nH]c65)c4)ccc3c2)[nH]1

>  <label>
high

$$$$
>  <compound>
COC(=O)N[C@H](C(=O)N1C[Si](C)(C)C[C@H]1c1nc2ccc3cc(-c4ccc(-c5nc(Cl)c([C@@H]6C[C@H]7C[C@H]7N6C(=O)[C@@H](NC(=O)OC)C(C)C)[nH]5)cc4)ccc3c2[nH]1)C(C)C

>  <label>
low

$$$$
>  <compound>
COC(=O)N[C@H](C(=O)N1CCC[C@H]1c1ncc(-c2ccc(-c3ccc4c(ccc5nc([C@@H]6C[Si](C)(C)CN6C(=O)C6(NC(=O)OC)CCC6)[nH]c54)c3)cc2)[nH]1)C(C)C

>  <label>
high

$$$$
